# System name: Recombinant human HSP90a (Homo sapiens, UniProt P07900)
# Protocol description: radioligand filter binding test ([3H]17AAG competition) for HSP90 inhibition
# Setup conditions: competition with [3H]17AAG 0.08 μM, HSP90 1.5 μg/assay, 22° C., 30 min
pIC50: −log10 of the molar value.
Measured attribute: pIC50

Nc1nc(C(=O)N2Cc3ccccc3C2)c2cc(-c3ccc(O)cc3CO)ccc2n1 :: 6.00 to 8.00
Nc1nc(C(=O)N2Cc3ccccc3C2)c2cc(-c3ccccc3OC(F)(F)F)ccc2n1 :: 6.00 to 8.00
Nc1nc(C(=O)N2Cc3ccccc3C2)c2cc(NCc3ccccc3)ccc2n1 :: 5.00 to 6.00
Nc1nc(C(=O)N2Cc3ccccc3C2)c2cc(-c3cccc(O)c3)ccc2n1 :: 5.00 to 6.00

Exam item: Query: pIC50; subject: Nc1nc(C(=O)Nc2cccc3c2CCCC3)c2ccccc2n1
Marked response: 5.00 to 6.00

Exam item: Fill in: pIC50 of Nc1nc(C(=O)Nc2cccc3cccnc23)c2ccccc2n1 is ___
Marked response: 5.00 to 6.00

Exam item: I have this molecule here, CNC(=O)c1nc(N)nc2ccccc12 , and I need its recorded pIC50.
Marked response: < 5.00

Exam item: State the recorded pIC50 for this entry: CN(C)CCOc1ccccc1-c1ccc2nc(N)nc(C(=O)N3Cc4ccccc4C3)c2c1
Marked response: 6.00 to 8.00

Data origin, for the record: patent US8501754B2
